molecular target: HER2 S310F (Homo sapiens, UniProt P04626, S310F); assay: BaF3 cell proliferation assay (CellTiterGlo), HER2 S310F; settings: Table A; BaF3 cells, 3 days
Sequence (P04626 23-1255 S310F): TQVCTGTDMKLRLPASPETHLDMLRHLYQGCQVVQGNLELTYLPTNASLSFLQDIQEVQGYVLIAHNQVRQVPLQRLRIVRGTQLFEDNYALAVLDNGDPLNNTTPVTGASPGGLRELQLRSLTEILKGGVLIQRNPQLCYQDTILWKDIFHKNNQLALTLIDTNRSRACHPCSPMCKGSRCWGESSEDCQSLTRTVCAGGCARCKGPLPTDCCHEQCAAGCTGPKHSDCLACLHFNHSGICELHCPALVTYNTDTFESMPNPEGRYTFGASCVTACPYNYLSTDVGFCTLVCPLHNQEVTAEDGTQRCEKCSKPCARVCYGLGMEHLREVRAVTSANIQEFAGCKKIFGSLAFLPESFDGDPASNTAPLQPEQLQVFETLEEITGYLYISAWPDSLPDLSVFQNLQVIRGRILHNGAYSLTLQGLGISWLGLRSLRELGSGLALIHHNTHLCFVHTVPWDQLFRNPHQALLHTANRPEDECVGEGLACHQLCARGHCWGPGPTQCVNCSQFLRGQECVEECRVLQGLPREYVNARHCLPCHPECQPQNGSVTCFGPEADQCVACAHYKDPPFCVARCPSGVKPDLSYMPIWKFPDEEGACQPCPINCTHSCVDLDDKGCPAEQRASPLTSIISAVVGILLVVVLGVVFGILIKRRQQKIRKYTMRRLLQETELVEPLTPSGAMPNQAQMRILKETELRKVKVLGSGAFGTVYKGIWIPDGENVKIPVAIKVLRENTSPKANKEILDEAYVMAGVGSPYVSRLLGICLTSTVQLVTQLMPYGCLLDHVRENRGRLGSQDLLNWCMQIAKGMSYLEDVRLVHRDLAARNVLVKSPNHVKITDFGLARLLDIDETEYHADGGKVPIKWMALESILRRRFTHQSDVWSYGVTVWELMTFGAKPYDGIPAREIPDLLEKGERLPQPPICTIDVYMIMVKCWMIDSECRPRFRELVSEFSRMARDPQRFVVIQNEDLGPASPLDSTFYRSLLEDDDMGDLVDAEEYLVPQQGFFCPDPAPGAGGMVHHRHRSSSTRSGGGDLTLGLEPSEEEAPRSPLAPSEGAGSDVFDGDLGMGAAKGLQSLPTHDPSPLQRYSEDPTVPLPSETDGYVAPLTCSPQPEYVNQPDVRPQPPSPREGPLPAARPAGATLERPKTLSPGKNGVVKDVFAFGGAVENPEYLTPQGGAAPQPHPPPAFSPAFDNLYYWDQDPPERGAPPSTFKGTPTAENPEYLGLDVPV
pIC50: −log10 of the molar value.
Property: pIC50

Solved entries:
{"Compound": "C=CC(=O)Nc1cc2c(Nc3ccc(Cl)c(Cl)c3F)ncnc2cc1C#CC1(C)CCOC1 (stereo not drawn) [Compound 63]", "pIC50": "6.30 to 7.00"}
{"Compound": "C=C(F)C(=O)Nc1cc2c(Nc3cccc(Cl)c3F)ncnc2cc1C#CC1(C)CCN(C)C1 (stereo not drawn) [Compound 5]", "pIC50": "6.30 to 7.00"}
{"Compound": "C=CC(=O)Nc1cc2c(Nc3ccc(OCc4cccc(F)c4)c(Cl)c3)ncnc2cc1C#CC1(C)CCOC1 (stereo not drawn) [Compound 61]", "pIC50": "7.00 to 7.30"}
{"Compound": "CC#CC(=O)Nc1cc2c(Nc3cccc(Cl)c3F)ncnc2cc1C#C[C@@H]1[C@H]2CN(C)C[C@@H]12 [Compound 74]", "pIC50": "7.00 to 7.30"}

INPUT: Output pIC50 of C=CC(=O)Nc1cc2c(Nc3ccc(OCc4ccccn4)c(Cl)c3)ncnc2cc1C#CC12CCC(CC1)N2C [Compound 71]
OUTPUT: ≥ 7.30

INPUT: Tell us which pIC50 value is on record for C=CC(=O)Nc1cc2c(Nc3cccc(Cl)c3F)ncnc2cc1C#CC1(C)CCN(C)C1 (stereo not drawn) [Compound 1]
OUTPUT: 7.00 to 7.30

INPUT: Identify the reported pIC50 for the following entry. CCC(=O)Nc1cc2c(Nc3cccc(Cl)c3F)ncnc2cc1C#C[C@@]1(C)CCN(C)C1 [Compound 22]
OUTPUT: < 6.30

INPUT: Report pIC50, nothing else, for this compound: C=CC(=O)Nc1cc2c(Nc3ccc(Cl)c(Cl)c3F)ncnc2cc1C#CC1(C)CCN(C)C1 (stereo not drawn) [Compound 7]
OUTPUT: 7.00 to 7.30

INPUT: Please look at this compound and report its pIC50: CN1CC[C@](C)(C#Cc2cc3ncnc(Nc4cccc(Cl)c4F)c3cc2NC(=O)/C=C/CN2CCOCC2)C1 [Compound No. 81]
OUTPUT: < 6.30

INPUT: Provide pIC50 value for the following compound: C=CC(=O)Nc1cc2c(Nc3cccc(Cl)c3F)ncnc2cc1C#CC1(OC)CCN(C)C1 (stereo not drawn) [Compound 52]
OUTPUT: 7.00 to 7.30

INPUT: Could you please provide reported pIC50 for C=CC(=O)Nc1cc2c(Nc3cccc(Cl)c3F)ncnc2cc1C#CC1(C)CCN(C2COC2)C1 (stereo not drawn) [Compound 69] ? Thanks!
OUTPUT: 6.30 to 7.00

###

target: EGFR wt (Homo sapiens, UniProt P00533); construct: expressed in transfected cells; host or cells: BaF3 (murine pro-B) cells, retroviral transduction with pMXs-IRES-Blasticidin; assay: BaF3 cell proliferation assay (CellTiterGlo), EGFR wt; assay type: cell-based; conditions: Table A; BaF3 cells, 3 days
Sequence (P00533 25-1210): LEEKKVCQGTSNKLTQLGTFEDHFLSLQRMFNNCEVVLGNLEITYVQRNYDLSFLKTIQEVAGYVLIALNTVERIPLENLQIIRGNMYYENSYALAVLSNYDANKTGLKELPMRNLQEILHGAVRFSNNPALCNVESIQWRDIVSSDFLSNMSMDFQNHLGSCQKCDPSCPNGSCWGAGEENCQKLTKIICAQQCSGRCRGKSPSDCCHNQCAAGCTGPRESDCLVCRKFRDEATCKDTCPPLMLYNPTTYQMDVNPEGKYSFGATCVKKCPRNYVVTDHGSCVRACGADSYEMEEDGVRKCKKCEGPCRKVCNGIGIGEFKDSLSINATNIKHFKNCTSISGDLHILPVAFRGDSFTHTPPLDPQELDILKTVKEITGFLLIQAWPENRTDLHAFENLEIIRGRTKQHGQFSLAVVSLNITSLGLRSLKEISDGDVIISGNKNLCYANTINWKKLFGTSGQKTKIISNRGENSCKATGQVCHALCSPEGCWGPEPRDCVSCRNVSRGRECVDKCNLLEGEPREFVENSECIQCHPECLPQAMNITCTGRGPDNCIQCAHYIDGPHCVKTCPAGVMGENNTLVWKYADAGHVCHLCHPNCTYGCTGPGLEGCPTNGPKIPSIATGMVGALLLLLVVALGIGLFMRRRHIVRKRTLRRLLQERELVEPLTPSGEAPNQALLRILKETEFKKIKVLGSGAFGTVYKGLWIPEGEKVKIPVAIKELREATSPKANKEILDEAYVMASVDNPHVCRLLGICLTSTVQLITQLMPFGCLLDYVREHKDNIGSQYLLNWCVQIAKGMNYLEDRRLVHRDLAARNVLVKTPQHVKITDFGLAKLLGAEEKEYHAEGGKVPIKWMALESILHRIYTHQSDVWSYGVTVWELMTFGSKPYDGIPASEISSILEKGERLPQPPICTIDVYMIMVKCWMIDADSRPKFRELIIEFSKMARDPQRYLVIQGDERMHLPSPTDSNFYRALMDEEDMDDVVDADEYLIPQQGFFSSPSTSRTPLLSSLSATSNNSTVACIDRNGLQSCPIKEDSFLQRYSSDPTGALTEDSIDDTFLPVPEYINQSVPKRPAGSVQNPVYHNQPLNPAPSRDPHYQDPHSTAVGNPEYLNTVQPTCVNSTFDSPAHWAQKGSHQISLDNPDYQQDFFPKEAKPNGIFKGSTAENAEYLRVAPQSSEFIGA
pIC50: −log10 of the molar value.
# pIC50 per entry

{"Compound": "C=CC(=O)Nc1cc2c(Nc3ccc(Oc4ccccc4)cc3)ncnc2cc1C#C[C@]12C[C@H]1CN(C)C2", "Assayed system": "EGFR wt (Homo sapiens, UniProt P00533)", "Property": "pIC50", "Reported result": "6.30 to 7.00"}
{"Compound": "C=CC(=O)Nc1cc2c(Nc3cccc(Cl)c3F)ncnc2cc1C#CC1(C(F)(F)F)CCN(C)C1 (stereo not drawn)", "Assayed system": "EGFR wt (Homo sapiens, UniProt P00533)", "Property": "pIC50", "Reported result": "< 6.30"}
{"Compound": "C=CC(=O)Nc1cc2c(Nc3ccc(OCc4ccccn4)c(Cl)c3)ncnc2cc1C#CC1(C)CCN(C)CC1", "Assayed system": "EGFR wt (Homo sapiens, UniProt P00533)", "Property": "pIC50", "Reported result": "< 6.30"}

INPUT: Give the measured pIC50 for C=CC(=O)Nc1cc2c(Nc3cccc(Cl)c3F)ncnc2cc1C#CC1(C)CN(C)C1
OUTPUT: 6.30 to 7.00

INPUT: Supply pIC50 value. Item: C=CC(=O)Nc1cc2c(Nc3cccc(Cl)c3F)ncnc2cc1C#C[C@]12C[C@H]1CN(C1COC1)C2
OUTPUT: 6.30 to 7.00

INPUT: Consider the compound C=CC(=O)Nc1cc2c(Nc3ccc(Oc4ccccc4)cc3)ncnc2cc1C#C[C@@]12C[C@@H]1CN(C)C2 and give its recorded pIC50.
OUTPUT: 6.30 to 7.00

INPUT: Respond only with pIC50 recorded for C=CC(=O)Nc1cc2c(Nc3cccc(Cl)c3F)ncnc2cc1C#C[C@@]1(C)CCN(C)C1
OUTPUT: 6.30 to 7.00

INPUT: Item C=CC(=O)Nc1cc2c(Nc3cccc(Cl)c3F)ncnc2cc1C#C[C@]1(C)CCCN(C)C1 : provide pIC50
OUTPUT: 6.30 to 7.00

INPUT: Indicate its recorded pIC50; the compound in question is CN(C)C/C=C/C(=O)Nc1cc2c(Nc3cccc(Cl)c3F)ncnc2cc1C#C[C@@]1(C)CCN(C)C1
OUTPUT: < 6.30

INPUT: Give the measured pIC50 for C=CC(=O)Nc1cc2c(Nc3cccc(Cl)c3F)ncnc2cc1C#C[C@]12C[C@H]1CN(C(C)C)C2
OUTPUT: ≥ 7.30

INPUT: Could you please provide reported pIC50 for C=CC(=O)Nc1cc2c(Nc3cccc(Cl)c3F)ncnc2cc1C#CC1(C)CCN(C)CC1 ? Thanks!
OUTPUT: 7.00 to 7.30

INPUT: # return recorded pIC50 for input C=CC(=O)Nc1cc2c(Nc3cccc(Cl)c3F)ncnc2cc1C#C[C@@]1(C)CCCN(C)C1
OUTPUT: < 6.30

INPUT: Give the reported value of pIC50 for this record: C=CC(=O)Nc1cc2c(Nc3cccc(Cl)c3F)ncnc2cc1C#C[C@]1(F)CCN(C)C1
OUTPUT: 6.30 to 7.00

INPUT: Please look at this compound and report its pIC50: CN(C)C/C=C/C(=O)Nc1cc2c(Nc3cccc(Cl)c3F)ncnc2cc1C#CC1(C)CCOC1 (stereo not drawn)
OUTPUT: ≥ 7.30

INPUT: For the compound C=CC(=O)Nc1cc2c(Nc3cccc(Cl)c3F)ncnc2cc1C#C[C@]1(C)CCN(C2COC2)C1 , give its reported pIC50.
OUTPUT: 6.30 to 7.00
